Numbers sourced from ChEMBL document CHEMBL1137822.

measured target: Acetylcholinesterase (Homo sapiens, UniProt P22303)
Sequence (P22303 whole entry): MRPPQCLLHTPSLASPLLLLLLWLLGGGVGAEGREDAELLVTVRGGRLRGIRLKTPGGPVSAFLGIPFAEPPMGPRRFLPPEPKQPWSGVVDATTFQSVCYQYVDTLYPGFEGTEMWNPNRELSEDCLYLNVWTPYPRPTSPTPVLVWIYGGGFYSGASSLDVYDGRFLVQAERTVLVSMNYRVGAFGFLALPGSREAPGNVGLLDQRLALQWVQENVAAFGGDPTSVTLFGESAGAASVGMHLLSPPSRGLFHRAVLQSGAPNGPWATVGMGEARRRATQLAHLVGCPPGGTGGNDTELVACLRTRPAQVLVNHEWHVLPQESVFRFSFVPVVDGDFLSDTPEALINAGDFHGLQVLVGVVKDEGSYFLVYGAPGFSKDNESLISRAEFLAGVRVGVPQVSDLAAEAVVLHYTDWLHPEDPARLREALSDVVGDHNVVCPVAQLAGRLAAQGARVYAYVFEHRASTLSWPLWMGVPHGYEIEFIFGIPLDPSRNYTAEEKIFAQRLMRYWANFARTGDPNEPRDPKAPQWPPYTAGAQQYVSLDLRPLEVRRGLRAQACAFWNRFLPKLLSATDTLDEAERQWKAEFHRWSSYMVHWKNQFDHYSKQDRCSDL
run description: Inhibitory concentration against human serum acetylcholinesterase activity
experimental endpoint: IC50
Answer format reminder: number followed by unit.

- compound: "CNC(=O)Oc1cccc2c1CCC1CCN(C)C21 (stereo unspecified)"
  measured target: "Acetylcholinesterase (Homo sapiens, UniProt P22303)"
  result: "17.3 nM"
- compound: "CCNC(=O)Oc1cccc2c1OCC1CCN(C)C21 (stereo unspecified)"
  measured target: "Acetylcholinesterase (Homo sapiens, UniProt P22303)"
  result: "420 nM"
- compound: "CNC(=O)Oc1cccc2c1OCC1CCN(C)C21 (stereo unspecified)"
  measured target: "Acetylcholinesterase (Homo sapiens, UniProt P22303)"
  result: "30 nM"
- compound: "CCNC(=O)Oc1cccc2c1CCC1CCN(C)C21 (stereo unspecified)"
  measured target: "Acetylcholinesterase (Homo sapiens, UniProt P22303)"
  result: "393 nM"
- compound: "CCCCCCCNC(=O)Oc1cccc2c1OCC1CCN(C)C21 (stereo unspecified)"
  measured target: "Acetylcholinesterase (Homo sapiens, UniProt P22303)"
  result: "20.3 nM"

// moving on: another record for IC50
*Q* Look at this compound and give its reported IC50. CNC(=O)Oc1cccc2c1SCC1CCN(C)C21 (stereo unspecified)
*A* 8.11 nM
